target: UniProt:P34972; assay: Agonist activity at human recombinant cannabinoid CB2 receptor expressed in CHO cells at 10 uM by [35S]GTPgammaS binding assay; format: functional, cell-based
Sequence (P34972 whole entry): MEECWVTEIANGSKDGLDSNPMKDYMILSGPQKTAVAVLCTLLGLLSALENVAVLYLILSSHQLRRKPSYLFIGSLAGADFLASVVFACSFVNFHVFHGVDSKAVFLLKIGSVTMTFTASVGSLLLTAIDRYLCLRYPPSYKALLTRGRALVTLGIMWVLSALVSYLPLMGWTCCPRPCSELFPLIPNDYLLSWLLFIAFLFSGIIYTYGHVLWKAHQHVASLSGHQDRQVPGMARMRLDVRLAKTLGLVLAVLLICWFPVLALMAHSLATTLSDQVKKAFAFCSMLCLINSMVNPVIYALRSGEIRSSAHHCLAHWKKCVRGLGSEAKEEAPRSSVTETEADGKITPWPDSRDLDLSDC
PROPERTY_MEASURED: Activity (%)
Answer format: numeric, % implied, no suffix.

Some entries whose results are on file:
- CHEMICAL_SMILES: "FC(F)(F)c1cccc(Nc2nccc3ccccc23)c1"
  PROPERTY_MEASURED: "Activity"
  TEST_VALUE: 102
- CHEMICAL_SMILES: "c1ccc(Nc2ccnc3ccccc23)cc1"
  PROPERTY_MEASURED: "Activity"
  TEST_VALUE: 9
- CHEMICAL_SMILES: "Clc1ccccc1Nc1ccc2ccccc2n1"
  PROPERTY_MEASURED: "Activity"
  TEST_VALUE: 56

**Q:** Determine from records and report Activity for `COC(=O)c1cc2ccccc2c(Nc2cccc(C(F)(F)F)c2)n1`
**A:** 4
